Value source: patent US9115101B2

Target: RORc ligand binding domain (Homo sapiens, UniProt P51449)
Construct: host or cells: E. coli
Sequence (P51449 269-508 limits assumed): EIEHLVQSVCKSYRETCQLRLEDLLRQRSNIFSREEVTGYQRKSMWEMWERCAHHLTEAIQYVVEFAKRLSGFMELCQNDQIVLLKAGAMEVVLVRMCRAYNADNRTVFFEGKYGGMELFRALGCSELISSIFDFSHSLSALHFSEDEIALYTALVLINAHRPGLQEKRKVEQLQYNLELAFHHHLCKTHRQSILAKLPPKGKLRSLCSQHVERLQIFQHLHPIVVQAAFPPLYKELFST
Test: In Vitro RORc Ligand Binding Assay (25-[3H]hydroxycholesterol radioligand filtration)
Settings: In Vitro RORc Ligand Binding Assay; Table 4; read-out: RORc IC50
pIC50: −log10 of the molar value.
Reported Endpoint: pIC50

Please review the following examples before continuing.
{"Compound": "C[C@H]1CCC(c2ccccc2)S(=O)(=O)N1Cc1ccc(N2CCC(n3cncn3)CC2)cc1F (stereo partly drawn) [Example 215]", "Tested System": "RORc ligand binding domain (Homo sapiens, UniProt P51449)", "Recorded Result": 7.52}
{"Compound": "CC(=O)N1CCN(c2ccc(CN3[C@@H](C)CCC(c4cccc(F)c4)S3(=O)=O)c(F)c2)CC1 (single isomer, unassigned) [Example 128]", "Tested System": "RORc ligand binding domain (Homo sapiens, UniProt P51449)", "Recorded Result": 7.28}
{"Compound": "C[C@H](O)C(=O)N1C[C@H]2C[C@@H]1CN2c1ccc(CN2[C@@H](C)CCC(c3ccccc3)S2(=O)=O)c(F)c1 (single isomer, unassigned) [Example 183]", "Tested System": "RORc ligand binding domain (Homo sapiens, UniProt P51449)", "Recorded Result": 7.40}

(1) CC(=O)N1CCN(c2ccc(CN3[C@@H](C)CCC(c4ccc(C#N)cc4)S3(=O)=O)c(F)c2)CC1 (single isomer, unassigned) [Example 173]
(2) CC(=O)N1CCN(c2ccc(CN3CC(C)CC(c4ccccc4)S3(=O)=O)c(F)c2)CC1 (single isomer, unassigned) [Example 119]
(3) COc1ccc(C2CC[C@H](C)N(Cc3ccc(N4CCN(C(C)=O)CC4)cc3F)S2(=O)=O)cc1 (single isomer, unassigned) [Example 177]
Request: Sort entries by pIC50 from minimum to maximum value. State the ranking by listing the labels in the requested order.
Response: 1, 3, 2

(I) CO[C@@H](C)C(=O)N1CCN(c2ccc(CN3[C@@H](C)CCC(c4ccccc4)S3(=O)=O)c(F)c2)CC1 (single isomer, unassigned) [Example 77]
(II) CC(=O)N1CCN(c2ccc(CN3CCCCC(c4ccccc4)S3(=O)=O)c(F)c2)CC1 (single isomer, unassigned) [Example 15]
Request: Min pIC50? I | II Give the label of your selection.
Response: I

(P) C[C@H]1CCC(c2ccccc2)S(=O)(=O)N1Cc1ccc(N2CC3(CCOCC3)C2)cc1F (single isomer, unassigned) [Example 85]
(Q) C[C@H]1CCC(c2ccccc2)S(=O)(=O)N1Cc1ccc(N2CCCN(C(=O)CC#N)CC2)cc1F (single isomer, unassigned) [Example 82]
Request: Among P and Q , whose measured pIC50 is the smaller figure? Select an item and report its label.
Response: P

(a) CC(=O)N1CCN(c2ccc(CN3C(C)CCCC(c4ccccc4)S3(=O)=O)c(F)c2)CC1 (single isomer, unassigned) [Example 329]
(b) CS(=O)(=O)N1CCC(Oc2ccc(CN3CCOCC(c4ccccc4)S3(=O)=O)c(F)c2)CC1 (single isomer, unassigned) [Example 57]
Request: Lab notebook, comparison: a versus b , higher pIC50 goes to which? Reply with the label of the item you choose.
Response: b
(b: 7.85, a: 7.62)
